Provenance of the data: ChEMBL document CHEMBL4477216

For each entry below, report its AUC(0-t) at 24 h value.
# testSummary: AUC (0 to 24 hrs) in FVB.Cg-Tg(SMN2 delta 7 exon)4299Ahmb Tg(SMN2)89Ahmb Smn1tm1Msd/J mouse at 10 mg/kg, ip
# Assay type: ADME, organism-based
# Set-up: dose 10 mg/kg, time < 24 hr, route intraperitoneal
# conditionsUsed: in vivo

In: Quick one: AUC(0-t) at 24 h for `Cc1cn2cc(-c3cc4ccc(N5CCN(C)CC5)cc4c(=O)o3)nc2c(C)n1` ?
Out: 5 µg·h/mL

In: What does the record list as AUC(0-t) at 24 h for `Cc1cn2nc(-c3cc(=O)n4cc(N5CCN(C)CC5)ccc4n3)cc2c(C)n1` ?
Out: 6.9 µg·h/mL

In: Which AUC(0-t) at 24 h is reported for this compound? `CCN1CCN(c2ccc3cc(-c4cn5cc(C)nc(C)c5n4)c(=O)oc3c2)C[C@@H]1C`
Out: 3.6 µg·h/mL
